Sourced from PubChem BioAssay (EPA / NIEHS)

molecular target: Estrogen receptor beta (Homo sapiens); assay: OT_ER_ERbERb_1440: Odyssey Thera (OT) 24-hour HEK293T Protein-Complementation Assay for Estrogen Receptor-beta/-beta Homodimer (AID 2283380);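 also: fluorescence gain from ER beta LBD homodimer complementation read by laser scanning cytometry; scored as signal increase over DMSO baseline for both agonists and antagonists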
Activity calls are given as the source filed them. The calls were made as follows: active = hit-call score of the fitted dose curve at least 0.9, where 1 is the maximum; inconclusive = response in the unintended direction; inactive = score below 0.9.
Labels: TRUE for active, FALSE for inactive

- Compound: "CCCCOC(=O)[C@@H](C)Oc1ccc(Oc2ccc(C(F)(F)F)cn2)cc1"
  Assigned Class: "FALSE"
- Compound: "COC(=O)CSc1cc(N=c2sc(=O)n3n2CCCC3)c(F)cc1Cl"
  Assigned Class: "FALSE"
- Compound: "O=C(O)C1(C(=O)Nc2ccc(Cl)cc2Cl)CC1"
  Assigned Class: "FALSE"
- Compound: "COc1c(Cl)ccc(Cl)c1C(=O)O"
  Assigned Class: "FALSE"
- Compound: "CCCCCOC(=O)COc1cc(N2C(=O)C3=C(CCCC3)C2=O)c(F)cc1Cl"
  Assigned Class: "FALSE"
- Compound: "CCCOC(=O)c1ccc(C(=O)OCCC)nc1"
  Assigned Class: "FALSE"
- Compound: "CCN(Cc1c(F)cccc1Cl)c1c([N+](=O)[O-])cc(C(F)(F)F)cc1[N+](=O)[O-]"
  Assigned Class: "FALSE"
- Compound: "CCCN(CCC)C(=O)SCC"
  Assigned Class: "FALSE"
- Compound: "O=C(Nc1ccc([N+](=O)[O-])cc1Cl)c1cc(Cl)ccc1O"
  Assigned Class: "FALSE"
- Compound: "Cc1nn(C)c(Oc2ccccc2)c1C=NOCc1ccc(C(=O)OC(C)(C)C)cc1"
  Assigned Class: "FALSE"
- Compound: "C=CCOC(Cn1ccnc1)c1ccc(Cl)cc1Cl (configuration not stated)"
  Assigned Class: "TRUE"
- Compound: "c1ccc(Nc2ccccc2)cc1"
  Assigned Class: "FALSE"
